- TARGET_ENTITY: UniProt P49841
- Sequence (P49841 whole entry, species assumed): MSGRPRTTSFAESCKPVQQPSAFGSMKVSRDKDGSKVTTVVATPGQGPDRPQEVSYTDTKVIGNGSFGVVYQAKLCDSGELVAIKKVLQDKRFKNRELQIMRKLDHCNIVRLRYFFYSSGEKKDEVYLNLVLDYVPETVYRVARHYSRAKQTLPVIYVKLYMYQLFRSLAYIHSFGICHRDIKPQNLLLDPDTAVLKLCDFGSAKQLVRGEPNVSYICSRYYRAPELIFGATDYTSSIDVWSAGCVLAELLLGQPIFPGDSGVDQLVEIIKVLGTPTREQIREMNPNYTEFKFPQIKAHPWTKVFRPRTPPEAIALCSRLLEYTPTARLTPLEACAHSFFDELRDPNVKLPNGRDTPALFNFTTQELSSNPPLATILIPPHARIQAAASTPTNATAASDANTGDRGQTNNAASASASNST
- PROTOCOL_TEXT: GSK3β ATP depletion assay
- Assay type: biochemical
- TEST_SETTINGS: read-out: GSK3b IC50
OUTCOME_MEASURE: IC50 (nM)
Give bare numbers, in nM.

# count of solved cases: 2
COMPOUND	IC50, nM
C[C@H]1O[C@@H](c2ccncc2NC(=O)c2ccc(F)c(-c3ccccc3F)n2)C[C@@H](O)[C@]1(C)O	117
N#C[C@H]1O[C@@H](c2ccncc2NC(=O)c2ccnc(-c3c(F)cccc3F)n2)C[C@@H](O)[C@@H]1O	209

Q: Write IC50 of Nc1cnc(-c2c(F)cccc2F)nc1C(=O)Nc1cnccc1C1=C[C@@H](O)[C@H](O)[C@@H](CCl)O1 ; system used: UniProt P49841
Result: 70

###

Exercise: state measured pIC50 for each of the compounds provided.
- TARGET_ENTITY: FLT3D835Y kinase (Homo sapiens, UniProt P36888, D835Y)
- PROTOCOL_TEXT: FLT3D835Y kinase inhibition assay (LanthaScreen TR-FRET)
- TEST_SETTINGS: read-out: FLT3 IC50
Give bare numbers, as −log10 of the molar value.

Observe how each entry below is paired with its result.
COMPOUND	TARGET_ENTITY	pIC50
CC(C)(C)[C@H]1O[C@@H](c2ccncc2NC(=O)c2nc(-c3ccccc3)cnc2N)C[C@@H](N)[C@@H]1O	FLT3D835Y kinase (Homo sapiens, UniProt P36888, D835Y)	8.51
C[C@]1(O)[C@H](N)C[C@H](c2ccncc2NC(=O)c2nc(-c3ccccc3)cnc2N)O[C@@H]1C1CC1	FLT3D835Y kinase (Homo sapiens, UniProt P36888, D835Y)	8.00
C[C@]1(O)[C@H](N)C[C@H](c2ccncc2NC(=O)c2nc(-c3ccccc3)cnc2N)OC12CC2	FLT3D835Y kinase (Homo sapiens, UniProt P36888, D835Y)	7.02
N[C@@H]1C[C@H](c2ccncc2NC(=O)c2ccc(F)c(-c3c(F)cccc3F)n2)O[C@@H]2CCC[C@]12O	FLT3D835Y kinase (Homo sapiens, UniProt P36888, D835Y)	5.38
Nc1ncc(-c2ccccc2)nc1C(=O)Nc1cnccc1[C@@H]1C[C@H](N)[C@]2(O)CCCC[C@@H]2O1	FLT3D835Y kinase (Homo sapiens, UniProt P36888, D835Y)	5.39
CC(C)(C)[C@@H]1O[C@H](c2ccncc2NC(=O)c2nc(-c3ccccc3)cnc2N)C[C@@H](N)[C@H]1O	FLT3D835Y kinase (Homo sapiens, UniProt P36888, D835Y)	6.85

Report pIC50 for each item below.
1. CC(C)[C@H]1C[C@@H](N)C[C@@H](c2ccncc2NC(=O)c2nc(-c3ccccc3)cnc2N)O1
2. Nc1ncc(-c2ccccc2)nc1C(=O)Nc1cnccc1[C@H]1C[C@@H](N)[C@H]2CCC[C@H]2O1

Result:
1. 6.23
2. 8.74

###

Provide the reported pIC50 of each item.
- TARGET_ENTITY: UniProt Q9P1W9
- Sequence (Q9P1W9 whole entry): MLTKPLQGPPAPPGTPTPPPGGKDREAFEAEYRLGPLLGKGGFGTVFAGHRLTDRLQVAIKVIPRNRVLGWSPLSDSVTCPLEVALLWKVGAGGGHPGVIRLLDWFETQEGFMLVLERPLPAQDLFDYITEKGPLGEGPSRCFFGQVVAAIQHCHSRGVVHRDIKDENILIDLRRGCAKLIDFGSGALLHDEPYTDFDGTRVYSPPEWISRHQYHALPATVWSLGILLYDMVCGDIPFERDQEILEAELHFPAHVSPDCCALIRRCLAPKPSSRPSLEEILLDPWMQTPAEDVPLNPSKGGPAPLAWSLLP
- PROTOCOL_TEXT: Pim 2 AlphaScreen assay (high ATP)
- Type: biochemical
- TEST_SETTINGS: read-out: Pim2 IC50
Numbers only, as −log10 of the molar value.

COMPOUND	READING
CC(C)(C)[C@@H]1O[C@H](c2ccncc2NC(=O)c2nc(-c3ccccc3)cnc2N)C[C@H](N)[C@H]1O	5.06

Hi there! I need pIC50 for each item below, if you can.
1. Nc1ncc(-c2ccccc2)nc1C(=O)Nc1cnccc1[C@H]1C[C@@H](N)[C@H]2CCC[C@H]2O1
2. CC[C@]1(O)[C@H](N)C[C@H](c2ccncc2NC(=O)c2ccc(F)c(-c3c(F)cc(OC)cc3F)n2)O[C@@H]1C
3. CC[C@H]1O[C@@H](c2ccncc2NC(=O)c2nc(-c3ccccc3)cnc2N)C[C@@H](N)[C@]1(C)O

Result:
1: 6.99; 2: 8.21; 3: 6.84

###

- TARGET_ENTITY: PIM1 (Homo sapiens)
- Sequence (P11309 whole entry): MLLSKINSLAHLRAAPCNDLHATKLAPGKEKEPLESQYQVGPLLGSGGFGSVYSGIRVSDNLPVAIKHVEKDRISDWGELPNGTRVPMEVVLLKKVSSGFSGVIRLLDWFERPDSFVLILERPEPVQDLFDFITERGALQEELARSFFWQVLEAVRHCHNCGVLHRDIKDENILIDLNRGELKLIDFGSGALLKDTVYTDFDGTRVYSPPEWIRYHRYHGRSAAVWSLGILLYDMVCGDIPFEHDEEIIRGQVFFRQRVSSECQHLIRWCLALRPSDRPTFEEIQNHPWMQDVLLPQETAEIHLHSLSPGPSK
- PROTOCOL_TEXT: Pim 1 AlphaScreen assay (high ATP)
- Format: biochemical
- TEST_SETTINGS: read-out: Pim1 IC50
OUTCOME_MEASURE: IC50 (nM)
Answers are plain numbers, in nM.

// worked examples, IC50 included
COMPOUND	IC50 [nM]
CC(C)[C@H]1OC(c2ccncc2NC(=O)c2ccc(F)c(-c3c(F)cc(OCCO)cc3F)n2)C[C@@H](N)[C@@H]1O (stereo in doubt)	0.07
C[C@H]1O[C@@H](c2ccncc2NC(=O)c2ccc(F)c(-c3ccccc3)n2)C[C@@H](N)[C@]1(C)O	1
COc1ccc(F)c(-c2nc(C(=O)Nc3cnccc3[C@H]3C[C@@H](N)[C@](C)(O)[C@@H](C)O3)ccc2F)c1F	0.08
CC(C)[C@H]1OC(c2ccncc2NC(=O)c2ccc(F)c(-c3c(F)ccc(C(=O)N(C)C)c3F)n2)C[C@@H](N)[C@@H]1O (stereo in doubt)	1
Cc1cc(F)c(-c2nc(C(=O)Nc3cnccc3[C@H]3C[C@@H](N)[C@](C)(O)[C@@H](C4CC4)O3)ccc2F)c(F)c1	0.11

Q: Print PIM1 (Homo sapiens) IC50 for C[C@]1(O)[C@H](N)C[C@H](c2ccncc2NC(=O)c2nc(-c3c(F)cccc3F)c(F)cc2N)O[C@@H]1C1CC1 .
Result: 0.11

###

- TARGET_ENTITY: hERG (Homo sapiens, UniProt Q12809)
- Construct: host or cells: crude membrane suspension
- Sequence (Q12809 whole entry): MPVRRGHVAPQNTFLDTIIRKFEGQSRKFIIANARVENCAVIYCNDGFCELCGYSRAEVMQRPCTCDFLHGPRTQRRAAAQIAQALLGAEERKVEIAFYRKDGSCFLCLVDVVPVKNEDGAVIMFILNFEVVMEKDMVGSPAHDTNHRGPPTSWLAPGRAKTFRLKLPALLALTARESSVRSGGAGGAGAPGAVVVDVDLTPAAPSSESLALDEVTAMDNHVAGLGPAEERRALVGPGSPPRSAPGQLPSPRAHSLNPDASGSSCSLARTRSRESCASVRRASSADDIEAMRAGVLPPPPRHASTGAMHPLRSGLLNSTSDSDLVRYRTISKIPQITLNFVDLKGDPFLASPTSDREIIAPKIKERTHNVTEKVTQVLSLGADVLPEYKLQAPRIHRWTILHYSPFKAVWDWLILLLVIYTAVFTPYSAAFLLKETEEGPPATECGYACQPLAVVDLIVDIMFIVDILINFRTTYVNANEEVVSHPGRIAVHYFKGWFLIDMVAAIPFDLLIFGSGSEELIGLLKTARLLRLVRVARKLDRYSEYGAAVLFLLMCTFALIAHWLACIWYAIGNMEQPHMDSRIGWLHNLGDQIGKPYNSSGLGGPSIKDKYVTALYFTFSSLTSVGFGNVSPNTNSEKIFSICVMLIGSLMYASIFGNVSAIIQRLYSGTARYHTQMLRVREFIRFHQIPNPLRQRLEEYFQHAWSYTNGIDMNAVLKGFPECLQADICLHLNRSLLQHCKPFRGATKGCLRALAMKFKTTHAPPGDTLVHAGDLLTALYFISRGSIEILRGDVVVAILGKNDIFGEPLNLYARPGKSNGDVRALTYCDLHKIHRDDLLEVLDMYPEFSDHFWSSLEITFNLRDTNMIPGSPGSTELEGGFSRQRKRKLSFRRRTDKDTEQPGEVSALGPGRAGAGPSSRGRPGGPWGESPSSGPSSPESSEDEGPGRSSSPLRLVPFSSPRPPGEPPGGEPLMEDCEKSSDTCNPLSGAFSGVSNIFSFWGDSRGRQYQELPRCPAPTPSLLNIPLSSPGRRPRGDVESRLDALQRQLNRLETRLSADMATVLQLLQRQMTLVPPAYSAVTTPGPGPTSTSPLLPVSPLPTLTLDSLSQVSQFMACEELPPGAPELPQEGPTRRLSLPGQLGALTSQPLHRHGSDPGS
- PROTOCOL_TEXT: hERG binding assay ([3H] dofetilide displacement)
- TEST_SETTINGS: dofetilide displacement; read-out: HERGdof IC50
pIC50: −log10 of the molar value.
OUTCOME_MEASURE: pIC50

Worked examples follow.
COMPOUND	pIC50
CC[C@]1(O)[C@H](O)C[C@H](c2ccncc2NC(=O)c2nc(-c3c(F)cccc3F)ncc2N)O[C@@H]1C [Example 143]	< 4.52
O=C(Nc1cnccc1[C@H]1C[C@@H](O)CCO1)c1ccc(F)c(-c2c(F)cccc2F)n1	< 4.52

# context switch: different compound, same pIC50
Q: Specify pIC50 for Nc1ncc(-c2ccccc2)nc1C(=O)Nc1cnccc1[C@H]1C[C@@H](O)[C@H](O)[C@@H](CCl)O1 and stop.
Result: < 4.52

###

- Test system: KMS11 (human myeloma cell line)
- PROTOCOL_TEXT: Cell proliferation assay (CellTiter-Glo), KMS11
- Format: cell-based
- TEST_SETTINGS: Homo sapiens, KMS-11; KMS11 cells, cell proliferation; read-out: KMS11-Luc EC50
- Experimental: KMS11 (human myeloma cell line), were cultured in IMDM supplemented with 10% FBS, sodium pyruvate and antibiotics. Cells were plated in the same medium at a density of 2000 cells per well into 96 well tissue culture plates, with outside wells vacant, on the day of assay. […] After 3 days plates were equilibrated to room temperature and equal volume of CellTiter-Glow Reagent (Promega) was added to the culture wells. The plates were agitated briefly and luminescent signal was measured with luminometer. […]
Assignment: determine reported pEC50 for the given compounds.
Answers are plain numbers, as −log10 of the molar value.

Please give pEC50 for each item listed below.
1. CC1(C)C[C@H](N)C[C@@H](c2ccncc2NC(=O)c2ccc(F)c(-c3c(F)cc(OCCO)cc3F)n2)O1
2. CC(C)[C@H]1O[C@@H](c2ccncc2NC(=O)c2nc(-c3ccccc3)cnc2N)C[C@@H](N)[C@@H]1O
3. Nc1ncc(-c2ccccc2)nc1C(=O)Nc1cnccc1[C@H]1C[C@@H](N)[C@H]2CCC[C@H]2O1
4. CC[C@H]1O[C@@H](c2ccncc2NC(=O)c2ccc(F)c(-c3c(F)cccc3F)n2)C[C@@H](N)[C@@H]1O

Result:
1. 7.22
2. 6.74
3. 6.23
4. 7.15

###

Hi there, I'd appreciate the recorded log10(IC50) for every entry that follows.
- TARGET_ENTITY: PIM3 (Homo sapiens)
- PROTOCOL_TEXT: Pim 3 AlphaScreen assay (high ATP)
- Format: biochemical
- TEST_SETTINGS: read-out: Pim3 IC50
Log10 applied to IC50; unit prior to transform: nM.

Example compounds with recorded log10(IC50):
COMPOUND	log10(IC50)
N[C@@H]1C[C@H](c2ccncc2NC(=O)c2csc(-c3c(F)cccc3F)n2)O[C@@H]2CCC[C@H]12	1.16
N[C@H]1C[C@@H](c2ccncc2NC(=O)c2ccc(F)c(-c3c(F)cccc3F)n2)O[C@@H](C2CC2)[C@@H]1O	2.06
CSc1ccc(F)c(-c2nc(C(=O)Nc3cnccc3[C@H]3C[C@@H](N)[C@](C)(O)[C@@H](C)O3)ccc2F)c1F	0.41
Nc1cc(F)c(-c2c(F)cccc2F)nc1C(=O)Nc1cnccc1[C@H]1C[C@@H](N)[C@@]2(O)CCCC[C@H]2O1	-0.22
CC(C)[C@@H]1C[C@H](N)CC(c2ccncc2NC(=O)c2ccnc(-c3c(F)cccc3F)n2)O1 (stereo in doubt)	2.24

List log10(IC50) for every entry below, keeping the order given.
1. Cc1cc(F)c(-c2nc(C(=O)Nc3cnccc3[C@H]3C[C@@H](N)[C@](C)(O)[C@@H](C4CC4)O3)ccc2F)c(F)c1
2. N[C@@H]1C[C@H](c2ccncc2NC(=O)c2ccc(F)c(-c3c(F)cccc3F)n2)O[C@@H]2CCC(=O)N[C@@H]12
3. C[C@H]1O[C@@H](c2ccncc2NC(=O)c2ccc(F)c(-c3ccccc3)n2)C[C@@H](N)[C@]1(C)O
4. Cc1cc(F)c(-c2nc(C(=O)Nc3cnccc3[C@@H]3C[C@H](N)[C@@H](O)[C@H](C4CC4)O3)ccc2F)c(F)c1
5. CC(C)(C)[C@H]1O[C@@H](c2ccncc2NC(=O)c2ccnc(-c3c(F)cccc3F)n2)C[C@@H](N)[C@@H]1O

Result:
1. 0.38
2. 2.12
3. 1.62
4. 2.26
5. 1.36
